# Test system: L6
# Experiment description: Cytotoxicity against rat L6 cells
# Type: cell-based
Exercise: for every item that follows, state its recorded IC50.
Quick note: give the figure in µM, leave out the unit.

Q: Output measured IC50 for this item: C=C1C(=O)OC2/C=C(/C)[C@@H](O)C/C=C(\C)C[C@H](OC(=O)/C(C)=C/C)[C@@H]12 (single isomer, unassigned)
A: 10.2

Q: Assign IC50 to the following record: C=C(C(=O)O)[C@H]1[C@@H]2C=C(C)[C@@H](O)C[C@@H]2[C@](C)(O)C[C@@H]1OC(=O)/C(C)=C\C
A: 49

Q: Please report the measured IC50 for C=C(C)C(=O)O[C@H]1C/C(C)=C/C[C@H](O)/C(C)=C\C2OC(=O)C(=C)[C@@H]21 (single isomer, unassigned)
A: 9.38

###

# Tested on: L6
# Experiment description: Cytotoxicity against rat L6 cells
# Format: cell-based
Measured quantity: IC50 (µM)
Numeric answer only, unit µM assumed.

Q: Let me know recorded IC50 for C=C1C(=O)O[C@@H]2/C=C(/C)[C@@H](O)C/C=C(\C)C[C@H](OC(=O)/C(C)=C\C)[C@@H]12 , thanks.
A: 6.64

Q: Input Nc1nc(N)nc(Nc2ccc([As]3SCC(CO)S3)cc2)n1 (stereo unspecified) , output reported IC50.
A: 29.1

Q: Give the reported value of IC50 for this record: C=C1C(=O)O[C@@]23C=C(C)[C@@H](O)C[C@@H]2[C@@H](C)C[C@H](OC(=O)/C(C)=C\C)[C@@H]13
A: 1.11

Q: Using the record for C=C1C(=O)O[C@]23C=C(C)[C@@H](O)C[C@@H]2[C@H](C)C[C@H](OC(=O)/C(C)=C\C)[C@@H]13 , state its measured IC50.
A: 2.12

Q: Quickly give me recorded IC50 for C=C(C(=O)O)[C@H]1[C@@H]2C=C(C)C(=O)C[C@@H]2[C@@H](C)C[C@@H]1OC(=O)/C(C)=C\C
A: 49.1

###

Kindly supply the reported selectivity ratio values for the records listed here.
# Experiment description: Selectivity index, ratio of IC50 for rat L6 cells to IC50 for bloodstream forms of Trypanosoma brucei rhodesiense STIB 900
# Assay type: toxicity, cell-based
# Condition details: read-out: Ratio IC50
Write no unit; give the number alone.

Q: Recall and state the measured selectivity ratio for C=C(C)C(=O)O[C@H]1C/C(C)=C/C[C@H](O)/C(C)=C\C2OC(=O)C(=C)[C@@H]21 (single isomer, unassigned) .
A: 6.1

Q: Tell me measured selectivity ratio for C=C(C(=O)O)[C@H]1[C@@H]2C=C(C)[C@@H](O)C[C@@H]2[C@](C)(O)C[C@@H]1OC(=O)/C(C)=C\C please.
A: 3.3

Q: Could you please provide reported selectivity ratio for C=C1C(=O)O[C@@H]2/C=C(/C)[C@@H](O)C/C=C(\C)C[C@H](OC(=O)/C(C)=C\C)[C@@H]12 [NOBILIN] ? Thanks!
A: 2.1

Q: Give recorded selectivity ratio. C=C1C(=O)O[C@]23C=C(C)[C@@H](O)C[C@@H]2[C@H](C)C[C@H](OC(=O)/C(C)=C\C)[C@@H]13
A: 1.5

Q: Read the entry C=C1C(=O)O[C@@]23C=C(C)[C@@H](O)C[C@@H]2[C@@H](C)C[C@H](OC(=O)/C(C)=C\C)[C@@H]13 and write its reported selectivity ratio.
A: 2.4

Q: Identify measured selectivity ratio corresponding to C=C1C(=O)OC2/C=C(/C)[C@@H](O)C/C=C(\C)C[C@H](OC(=O)/C(C)=C/C)[C@@H]12 (single isomer, unassigned)
A: 2.9

Q: Provide selectivity ratio value for the following compound: C=C(C(=O)O)[C@H]1[C@@H]2C=C(C)C(=O)C[C@@H]2[C@@H](C)C[C@@H]1OC(=O)/C(C)=C\C
A: 1.6
